test: Lethal dose when given intraperitoneally in mice; format: toxicity, organism-based; conditions: mouse, in vivo, ip
assay-endpoint: LD50 (mg/kg)
The response must be a number in mg/kg with no trailing unit.

Below, each entry is followed by its recorded LD50 result.
INSERT INTO results (mol, assay_endpoint, reported_value) VALUES
  ('COCCN(CCOC)c1nn2c(-c3ccc(Cl)cc3)nnc2c2ccccc12', 'LD50', 600),
  ('COCCN(CCOC)c1nn2c(-c3ccc(C)cc3)nnc2c2ccccc12', 'LD50', 400);

Inquiry: # get_value(readout='LD50', item= N#Cc1ccc(-c2nnc3c4ccccc4c(N4CCCC4)nn23)cc1 )
Reply text: 600
